Target: rat mGluR4 (Rattus norvegicus, UniProt P31423)
Construct: expressed in transfected cells; host or cells: CHO or HEK cells, co-expressing Gαqi5
Sequence (P31423 33-912): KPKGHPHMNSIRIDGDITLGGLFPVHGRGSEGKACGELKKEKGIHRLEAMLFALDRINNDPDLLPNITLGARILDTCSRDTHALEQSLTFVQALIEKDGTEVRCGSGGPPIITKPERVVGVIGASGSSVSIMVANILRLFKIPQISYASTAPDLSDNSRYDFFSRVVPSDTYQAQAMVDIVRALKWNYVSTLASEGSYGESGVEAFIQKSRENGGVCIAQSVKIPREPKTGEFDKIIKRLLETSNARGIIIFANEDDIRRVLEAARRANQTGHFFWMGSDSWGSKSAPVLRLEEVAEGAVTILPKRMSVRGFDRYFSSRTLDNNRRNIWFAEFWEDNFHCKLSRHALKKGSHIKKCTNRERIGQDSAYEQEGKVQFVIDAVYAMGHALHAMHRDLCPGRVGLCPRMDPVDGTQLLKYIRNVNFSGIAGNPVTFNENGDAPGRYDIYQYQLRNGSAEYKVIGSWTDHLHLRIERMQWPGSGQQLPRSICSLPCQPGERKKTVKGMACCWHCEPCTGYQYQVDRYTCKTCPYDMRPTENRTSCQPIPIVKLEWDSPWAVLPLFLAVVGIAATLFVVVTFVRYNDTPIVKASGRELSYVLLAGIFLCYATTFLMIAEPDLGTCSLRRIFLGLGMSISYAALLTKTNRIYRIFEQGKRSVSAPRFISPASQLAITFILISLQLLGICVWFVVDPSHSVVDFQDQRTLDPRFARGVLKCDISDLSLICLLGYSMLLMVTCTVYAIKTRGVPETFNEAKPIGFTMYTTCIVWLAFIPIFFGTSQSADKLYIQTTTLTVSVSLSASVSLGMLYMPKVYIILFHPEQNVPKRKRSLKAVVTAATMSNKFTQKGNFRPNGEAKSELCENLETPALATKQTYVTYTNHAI
Assay: FLIPR Ca2+ flux assay, rat mGluR4
Type: cell-based
Conditions: without PHCCC, n=3; read-out: EC50 for L-AP4 activation of rat mGluR4
Assay metric: pEC50
Remember, pEC50 is on a log scale: it is -log10 of the molar concentration.

In: Returns the measured pEC50 for the input molecule. Input: NC(CCP(=O)(O)O)C(=O)O [L-AP4]
Out: 6.08

----------
Target: human mGluR4 (Homo sapiens, UniProt Q14833)
Test: FLIPR Ca2+ flux assay, human mGluR4
Type: cell-based
Parameters: expressed in transfected cells; host or cells: CHO or HEK cells, co-expressing Gαqi5
Conditions: in the absence of PHCCC, n=3; read-out: EC50 for L-AP4 activation of human mGluR4
Sequence (Q14833 33-912): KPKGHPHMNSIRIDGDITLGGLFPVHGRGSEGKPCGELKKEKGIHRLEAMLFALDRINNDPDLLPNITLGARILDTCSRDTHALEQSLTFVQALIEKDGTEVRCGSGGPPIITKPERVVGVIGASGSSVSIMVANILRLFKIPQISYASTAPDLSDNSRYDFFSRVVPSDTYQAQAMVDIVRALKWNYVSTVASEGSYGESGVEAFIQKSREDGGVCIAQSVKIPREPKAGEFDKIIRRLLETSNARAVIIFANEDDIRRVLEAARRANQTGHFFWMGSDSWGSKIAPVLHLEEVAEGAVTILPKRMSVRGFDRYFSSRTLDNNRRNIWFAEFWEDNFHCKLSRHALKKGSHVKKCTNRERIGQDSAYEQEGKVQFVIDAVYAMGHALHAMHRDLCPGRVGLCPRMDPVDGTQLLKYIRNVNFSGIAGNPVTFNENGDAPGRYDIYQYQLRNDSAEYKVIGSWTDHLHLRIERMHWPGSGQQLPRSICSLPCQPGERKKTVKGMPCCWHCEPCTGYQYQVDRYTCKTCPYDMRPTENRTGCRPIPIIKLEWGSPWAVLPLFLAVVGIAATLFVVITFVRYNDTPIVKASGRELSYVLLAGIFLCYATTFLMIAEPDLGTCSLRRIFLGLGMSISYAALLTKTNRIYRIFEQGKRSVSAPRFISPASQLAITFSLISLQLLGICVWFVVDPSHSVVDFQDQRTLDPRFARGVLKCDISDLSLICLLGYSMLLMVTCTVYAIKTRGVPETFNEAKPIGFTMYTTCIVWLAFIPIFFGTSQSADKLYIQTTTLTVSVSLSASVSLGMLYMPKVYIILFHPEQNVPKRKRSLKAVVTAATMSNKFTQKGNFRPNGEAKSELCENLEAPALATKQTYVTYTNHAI
Assay metric: EC50 (nM)
Your answer is read as nM, so omit the unit and give the number.

In: Which EC50 is listed for NC(CCP(=O)(O)O)C(=O)O [L-AP4] ?
Out: 484

----------
Molecular target: human mGluR4 (Homo sapiens)
Test: FLIPR Ca2+ flux assay in mGluR4 CHO cells
Details: read-out: mGluR4 antagonist IC50; at higher concentrations
pIC50: −log10 of the molar value.
Assay metric: pIC50

In: Give the measured pIC50 of 7-(hydroxylimino)cyclopropa[b]chromen-1a-carboxamide ethyl ester [CPCCOEt] .
Out: < 4.00

----------
Biological target: human mGluR4 (Homo sapiens, UniProt Q14833)
Test: FLIPR Ca2+ flux assay, human mGluR4
Assay type: cell-based
Set-up: expressed in transfected cells; host or cells: CHO or HEK cells, co-expressing Gαqi5
Conditions: with 10 μM PHCCC, n=3; read-out: EC50 for L-AP4 activation of human mGluR4
Assay metric: pEC50
Units for pEC50: none; it is -log10 of a concentration expressed in mol/L.

In: # pEC50 lookup, item NC(CCP(=O)(O)O)C(=O)O (stereo not shown)
Out: 7.15
